tested on: SW 1573; assay: relative viability (nuclei count vs DMSO), 5 days (fraction); higher = more cells survive; details: first compound 0.01 µM
Provide the reported relative viability of each item.

relative viability for CCN(CC)CCCCNc1ncc2cc(-c3cc(OC)cc(OC)c3)c(NC(=O)NC(C)(C)C)nc2n1 + C[C@@H](Oc1cc(-c2cnn(C3CCNCC3)c2)cnc1N)c1c(Cl)ccc(F)c1Cl [Crizotinib] (partner 1 µM) is 0.69

The molecule listed as CCN(CC)CCCCNc1ncc2cc(-c3cc(OC)cc(OC)c3)c(NC(=O)NC(C)(C)C)nc2n1 + C[C@]1(O)C[C@@H](c2nc(-c3ccc4ccc(-c5ccccc5)nc4c3)c3c(N)nccn32)C1 [Linsitinib] (partner 1 µM) shows relative viability equal to 0.811

Lab note: measured relative viability of CCN(CC)CCCCNc1ncc2cc(-c3cc(OC)cc(OC)c3)c(NC(=O)NC(C)(C)C)nc2n1 + N=C(N)NC(=N)NCCc1ccccc1 [Phenformin] (partner 250 µM) was 0.351

Data point: O=c1cc(N2CCOCC2)oc2c(-c3cccc4c3sc3ccccc34)cccc12 + CC(=O)c1c(C)c2cnc(Nc3ccc(N4CCNCC4)cn3)nc2n(C2CCCC2)c1=O [Palbociclib] (partner 0.5 µM) ; relative viability = 0.349

In plain terms, O=c1cc(N2CCOCC2)oc2c(-c3cccc4c3sc3ccccc34)cccc12 + Nc1ncn([C@H]2C[C@H](O)[C@@H](CO)O2)c(=O)n1 [Decitabine] (partner 2 µM) has a documented relative viability of 0.625

Reported relative viability for O=c1cc(N2CCOCC2)oc2c(-c3cccc4c3sc3ccccc34)cccc12 + Cc1cc(Nc2cc(N3CCN(C)CC3)nc(Sc3ccc(NC(=O)C4CC4)cc3)n2)n[nH]1 [Tozasertib] (partner 0.1 µM) was 0.198

According to the records, this molecule O=c1cc(N2CCOCC2)oc2c(-c3cccc4c3sc3ccccc34)cccc12 + CS(=O)(=O)N1CCN(Cc2cc3nc(-c4cccc5[nH]ncc45)nc(N4CCOCC4)c3s2)CC1 [Pictilisib] (partner 1 µM) displays relative viability of 0.549

Sample O=c1cc(N2CCOCC2)oc2c(-c3cccc4c3sc3ccccc34)cccc12 + COc1cccc2cc(-c3nc([C@H]4CC[C@H](C(=O)O)CC4)n4ncnc(N)c34)[nH]c12 [OSI-027] (partner 0.5 µM) ; relative viability observed: 0.675

Measured relative viability of CCN(CC)CCCCNc1ncc2cc(-c3cc(OC)cc(OC)c3)c(NC(=O)NC(C)(C)C)nc2n1 + CC1(C)CCC(c2ccc(Cl)cc2)=C(CN2CCN(c3ccc(C(=O)NS(=O)(=O)c4ccc(N[C@H](CCN5CCOCC5)CSc5ccccc5)c(S(=O)(=O)C(F)(F)F)c4)cc3)CC2)C1 [Navitoclax] (partner 0.5 µM) : 0.958

For this molecule ( O=c1cc(N2CCOCC2)oc2c(-c3cccc4c3sc3ccccc34)cccc12 + Nc1nc2[nH]cc(CCc3ccc(C(=O)N[C@@H](CCC(=O)O)C(=O)O)cc3)c2c(=O)[nH]1 [Pemetrexed] (partner 0.2 µM) ), measured relative viability is 0.847

Sure, the documented relative viability for CCN(CC)CCCCNc1ncc2cc(-c3cc(OC)cc(OC)c3)c(NC(=O)NC(C)(C)C)nc2n1 + CC(=O)Nc1cccc(-n2c(=O)n(C3CC3)c(=O)c3c(Nc4ccc(I)cc4F)n(C)c(=O)c(C)c32)c1 [Trametinib] (partner 0.02 µM) is 0.455

Value of relative viability reported for the molecule CCN(CC)CCCCNc1ncc2cc(-c3cc(OC)cc(OC)c3)c(NC(=O)NC(C)(C)C)nc2n1 + CC(=O)c1c(C)c2cnc(Nc3ccc(N4CCNCC4)cn3)nc2n(C2CCCC2)c1=O [Palbociclib] (partner 0.5 µM) is 0.377
